B1: LOC100129726 (parent)
chain: VHTGCHKKLGPEARRPRTRWGKN

- Variants of: B1
- protocol-text: protein stability index of a GFP-peptide fusion (GPS, HEK-293T) (PSI 1-6); higher = more stable;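 also: lentivirally expressed fusions sorted by FACS into six bins by GFP to DsRed ratio, PSI derived from sequencing read proportions per bin multiplied by bin number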
- run-parameters: c terminus: native
quantity-name: protein stability index

>>> df
    mutation_descriptor  obs_value
 0                  C5S       1.51
 1                  G4D       2.33
 2                  C5G       2.34
 3                 P11A       2.24
 4                  H6A       1.63
 5                 R17C       1.93
 6                  C5A       2.57
 7                  G4P       2.15
 8                 R17D       4.38
 9                  H6M       2.12
10                  V1E       2.96
11                  H2P       2.05
12                  C5E       2.57
13                 R17N       3.66
14                 P16G       3.15
15                 G10I       1.33
16                 R14P       4.64
17                 P16N       3.05
18                  T3I       2.94
19                 R19H       2.59
20                 N23I        1.3
21                 R15C       1.41
22                  K7M       4.17
23                  V1L       1.84
24                 G10A       3.09
25                 P11D       2.18
26                  C5P       2.09
27                  K8I       1.37
28                  T3P       1.67
29                 R14G       4.21
30                 P11V       2.25
31                  V1C       2.12
32                 W20G       1.33
33                 R19K       1.49
34                  C5M       2.41
35                  C5F       1.85
36                  L9H       1.62
37                 P11W       1.46
38                 R15G       3.43
39                 R19Y       1.92
40                  H6E       1.41
41                 T18D       3.96
42                 N23Q       1.63
43                 G21V       2.78
44                 N23L       1.42
45                  C5N       1.59
46                 R14E       3.01
47                  K8E       1.63
48                 R17P       4.37
49                  C5I       1.63
50                 R15L        1.7
51                 R14M       3.01
52                 N23S       1.74
53                  T3F       1.95
54                 P11T       2.67
55                  H6R       2.85
56                 T18V       1.29
57                 R14H       2.71
58                 R19D       5.13
59                 R15H       2.44
